test system: Escherichia coli IAI1; experiment: growth AUC relative to DMSO control (median of replicates) (fraction); higher = more growth (less inhibition), active = hit call of the paper; conditions: 20 µM; 24 h
Catalogue of growth AUC values
assay readout: growth AUC

{"molecule": "CCC(C)(C)c1ccc(O)cc1", "measured number": 0.985}
{"molecule": "CCOP(=S)(OCC)Oc1nc(Cl)c(Cl)cc1Cl", "measured number": 1.01}
{"molecule": "Cc1cc(Cl)ccc1OCC(=O)O", "measured number": 1}
{"molecule": "N#Cc1nn(-c2c(Cl)cc(C(F)(F)F)cc2Cl)c(N)c1S(=O)C(F)(F)F (stereo unspecified)", "measured number": 0.981}
{"molecule": "CO/C=C(/C(=O)OC)c1ccccc1COc1cccc(C(F)(F)F)n1", "measured number": 0.997}
{"molecule": "CCOC(=O)Nc1cccc(OC(=O)Nc2ccccc2)c1", "measured number": 1.03}
{"molecule": "CCN(CC)c1nc(C)cc(OP(=S)(OC)OC)n1", "measured number": 0.978}
{"molecule": "CNC(=O)Oc1cccc2c1OC(C)(C)O2", "measured number": 0.993}
{"molecule": "O=C1C2CC=CCC2C(=O)N1SC(Cl)(Cl)Cl (stereo unspecified)", "measured number": 1.02}
{"molecule": "CC(C)(C)c1ccc(CSc2cnn(C(C)(C)C)c(=O)c2Cl)cc1", "measured number": 0.986}
{"molecule": "CCOC(=O)CCN(SN(C)C(=O)Oc1cccc2c1OC(C)(C)C2)C(C)C", "measured number": 1.01}

====

test system: Parabacteroides distasonis; assay: growth AUC relative to DMSO control (median of replicates) (fraction); higher = more growth (less inhibition), active = hit call of the paper; conditions: 20 µM; 24 h
Catalogue of growth AUC values
assay readout: growth AUC

{"compound": "COc1ccc(C(c2ccc(OC)cc2)C(Cl)(Cl)Cl)cc1", "measured number": 0.938}
{"compound": "CN(C)C(=S)SSC(=S)N(C)C", "measured number": 0.928}
{"compound": "CCC(C)c1cc([N+](=O)[O-])cc([N+](=O)[O-])c1O (configuration not stated)", "measured number": 0.841}
{"compound": "CCc1cccc(C)c1N(C(=O)CCl)C(C)COC (configuration not stated)", "measured number": 1.03}
{"compound": "C=CCC1=C(C)C(OC(=O)[C@@H]2[C@@H](C=C(C)C)C2(C)C)CC1=O (some centres not stated)", "measured number": 0.9}
{"compound": "CCCCOCN(C(=O)CCl)c1c(CC)cccc1CC", "measured number": 0.963}
{"compound": "CN(C)S(=O)(=O)N(SC(F)(Cl)Cl)c1ccccc1", "measured number": 1.02}
{"compound": "O=S(=O)(c1ccc(O)cc1)c1ccc(O)cc1", "measured number": 0.878}
{"compound": "CC(Oc1cc(Cl)c(Cl)cc1Cl)C(=O)O (configuration not stated)", "measured number": 0.955}
{"compound": "COc1ccc(-c2ccccc2)cc1NNC(=O)OC(C)C", "measured number": 0.892}
{"compound": "COP(=S)(OC)Oc1ccc(S(=O)(=O)N(C)C)cc1", "measured number": 1.01}
{"compound": "CN(C)C(=O)Nc1ccc(Cl)cc1", "measured number": 0.938}

====

Catalogue of growth AUC values
system: Coprococcus comes; assay: growth AUC relative to DMSO control (median of replicates) (fraction); higher = more growth (less inhibition), active = hit call of the paper; conditions: 20 µM; 24 h
assay readout: growth AUC

{"compound": "CC(C1CC1)C(O)(Cn1cncn1)c1ccc(Cl)cc1 (mixture of isomers)", "measured number": 0.936}
{"compound": "CSc1nnc(C(C)(C)C)c(=O)n1N", "measured number": 1.07}
{"compound": "Cc1cccc2sc3nncn3c12", "measured number": 0.98}
{"compound": "c1ccc2c(c1)ccc1c3ccccc3sc21", "measured number": 0.965}
{"compound": "CNC(=O)O/N=C(\\C)SC", "measured number": 0.981}
{"compound": "CCCCN(CC)C(=O)SCCC", "measured number": 1.03}
{"compound": "CC[C@H](C)[C@H]1O[C@]2(C=C[C@@H]1C)C[C@@H]1C[C@@H](C/C=C(\\C)[C@@H](O[C@H]3C[C@H](OC)[C@@H](O[C@H]4C[C@H](OC)[C@@H](NC)[C@H](C)O4)[C@H](C)O3)[C@@H](C)/C=C/C=C3\\CO[C@@H]4[C@H](O)C(C)=C[C@@H](C(=O)O1)[C@]34O)O2.O=C(O)c1ccccc1", "measured number": 0.156}
{"compound": "CCNc1nc(NC(C)C(C)C)nc(SC)n1 (stereo unspecified)", "measured number": 0.977}
{"compound": "N#CN=C1SCCN1Cc1ccc(Cl)nc1", "measured number": 1.04}
{"compound": "CN(C)NC(=O)CCC(=O)O", "measured number": 0.998}
{"compound": "COP(=S)(NC(C)C)Oc1ccccc1C(=O)OC(C)C (stereo unspecified)", "measured number": 1.03}
{"compound": "CNC(=O)N(C)c1nnc(C(C)(C)C)s1", "measured number": 0.995}
{"compound": "CCOP(=S)(OCC)SCCSCC", "measured number": 1.03}
{"compound": "O=C1C(Cl)=C(Cl)C(=O)c2ccccc21", "measured number": 1.05}
{"compound": "Nc1c(Cl)c(F)nc(OCC(=O)O)c1Cl", "measured number": 0.99}
{"compound": "Nc1ccc(Cc2ccc(N)c(Cl)c2)cc1Cl", "measured number": 1}
{"compound": "COP(=S)(OC)Oc1cc(Cl)c(Cl)cc1Cl", "measured number": 0.979}
{"compound": "CCCCOCN(C(=O)CCl)c1c(CC)cccc1CC", "measured number": 0.996}
{"compound": "Cc1ccccc1C(=O)Nc1cccc(OC(C)C)c1", "measured number": 1.02}
{"compound": "Nc1c(Cl)cc([N+](=O)[O-])cc1Cl", "measured number": 1.01}
{"compound": "CCc1nn(C)c(C(=O)NCc2ccc(Oc3ccc(C)cc3)cc2)c1Cl", "measured number": 0.959}
{"compound": "COS(=O)(=O)[O-].Cn1c(-c2ccccc2)cc(-c2ccccc2)[n+]1C", "measured number": 1}
{"compound": "CC(Cc1ccc(C(C)(C)C)cc1)CN1CCCCC1 (stereo unspecified)", "measured number": 0.931}
{"compound": "C=CCC1=C(C)C(OC(=O)[C@@H]2[C@@H](C=C(C)C)C2(C)C)CC1=O (stereo partly specified)", "measured number": 1.03}
{"compound": "ClC1=C(Cl)[C@]2(Cl)C3CC=CC3[C@@]1(Cl)C2(Cl)Cl (stereo partly specified)", "measured number": 0.942}
{"compound": "CNC(=O)Oc1ccccc1C(C)C", "measured number": 1.04}

====

system: Escherichia coli IAI1; assay: growth AUC relative to DMSO control (median of replicates) (fraction); higher = more growth (less inhibition), active = hit call of the paper; settings: 20 µM; 24 h
assay readout: growth AUC

{"compound": "CCOP(=S)(OCC)SCn1nnc2ccccc2c1=O", "assay readout": "growth AUC", "measured number": 1.03}
{"compound": "CCOC(=O)COc1cc(-c2nn(C)c(OC(F)F)c2Cl)c(F)cc1Cl", "assay readout": "growth AUC", "measured number": 0.971}
{"compound": "O=C(O)C1(O)c2ccccc2-c2ccc(Cl)cc21 (stereo unspecified)", "assay readout": "growth AUC", "measured number": 0.975}
{"compound": "O=C(Nc1ccccc1)c1ccccc1I", "assay readout": "growth AUC", "measured number": 1}
{"compound": "C=CCC1=C(C)C(OC(=O)C2C(C=C(C)C)C2(C)C)CC1=O (stereo unspecified)", "assay readout": "growth AUC", "measured number": 1}
{"compound": "Oc1ccc(C(c2ccc(O)cc2)(C(F)(F)F)C(F)(F)F)cc1", "assay readout": "growth AUC", "measured number": 1}

====

tested on: Bacteroides uniformis; assay: growth AUC relative to DMSO control (median of replicates) (fraction); higher = more growth (less inhibition), active = hit call of the paper; details: 20 µM; 24 h;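 active = AUC reduced over 20% with Padj below 0.05 in at least 2 of 3 replicates; inactive = otherwise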
Labels: active, inactive

{"molecule": "N#CCNC(=O)c1cnccc1C(F)(F)F", "classification": "inactive"}
{"molecule": "O=c1[nH]c(Cl)c(Cl)cc1Cl", "classification": "inactive"}
{"molecule": "CC(C)=CC1C(C(=O)OCc2coc(Cc3ccccc3)c2)C1(C)C (centres undefined)", "classification": "inactive"}
{"molecule": "CCCCC(O)(Cn1cncn1)c1ccc(Cl)cc1Cl (centres undefined)", "classification": "inactive"}
{"molecule": "COC(=O)c1sccc1S(=O)(=O)NC(=O)Nc1nc(C)nc(OC)n1", "classification": "inactive"}
{"molecule": "COc1cc(OC)nc(NC(=O)NS(=O)(=O)c2ncccc2C(=O)N(C)C)n1", "classification": "inactive"}
{"molecule": "CCOC(=O)CC(SP(=O)(OC)OC)C(=O)OCC (centres undefined)", "classification": "inactive"}
{"molecule": "CCOP(=S)(OCC)SCSP(=S)(OCC)OCC", "classification": "inactive"}
{"molecule": "CCCOCCN(C(=O)CCl)c1c(CC)cccc1CC", "classification": "inactive"}
{"molecule": "C[C@@H](Oc1ccc(Cl)cc1Cl)C(=O)O", "classification": "inactive"}
{"molecule": "Fc1ccc(C2(Cn3cncn3)OC2c2ccccc2Cl)cc1 (centres undefined)", "classification": "inactive"}
{"molecule": "CCOC(=O)c1cn2nc(OP(=S)(OCC)OCC)cc2nc1C", "classification": "inactive"}
{"molecule": "OC(Cc1ccccc1Cl)(Cn1[nH]cnc1=S)C1(Cl)CC1 (centres undefined)", "classification": "inactive"}
{"molecule": "CS(=O)(=O)c1ccc(C(=O)C2C(=O)CCCC2=O)c([N+](=O)[O-])c1", "classification": "inactive"}
{"molecule": "CCOP(=O)(OCC)Oc1ccc([N+](=O)[O-])cc1", "classification": "inactive"}
{"molecule": "[Cl][Sn]([c]1ccccc1)([c]1ccccc1)[c]1ccccc1", "classification": "active"}
{"molecule": "O=C(O)c1cc(Cl)ccc1Cl", "classification": "inactive"}
{"molecule": "Nc1ccncc1", "classification": "inactive"}
{"molecule": "N#Cc1nn(-c2c(Cl)cc(C(F)(F)F)cc2Cl)c(N)c1SC(F)(F)F", "classification": "inactive"}
{"molecule": "CN(C(=O)COc1nc2ccccc2s1)c1ccccc1", "classification": "inactive"}
{"molecule": "C#CCC1=C(C)C(OC(=O)C2C(C=C(C)C)C2(C)C)CC1=O (centres undefined)", "classification": "inactive"}
{"molecule": "C=C(C)[C@H]1Cc2c(ccc3c2O[C@@H]2COc4cc(OC)c(OC)cc4[C@@H]2C3=O)O1", "classification": "inactive"}
{"molecule": "O=C(O)COc1ccccc1", "classification": "inactive"}
{"molecule": "CP(=O)(O)CC(=O)O", "classification": "inactive"}
